Source of measurements: paper PMC12621043

target: STK10 (Homo sapiens, UniProt O94804); construct: purchased in-house DSF kinase panel (SGC-style construct names; the trailing letter is the construct ID); experiment: PhosphoSens in vitro activity assay; assay type: biochemical; conditions: ATP 160 μM
Sequence (O94804 18-317 limits assumed): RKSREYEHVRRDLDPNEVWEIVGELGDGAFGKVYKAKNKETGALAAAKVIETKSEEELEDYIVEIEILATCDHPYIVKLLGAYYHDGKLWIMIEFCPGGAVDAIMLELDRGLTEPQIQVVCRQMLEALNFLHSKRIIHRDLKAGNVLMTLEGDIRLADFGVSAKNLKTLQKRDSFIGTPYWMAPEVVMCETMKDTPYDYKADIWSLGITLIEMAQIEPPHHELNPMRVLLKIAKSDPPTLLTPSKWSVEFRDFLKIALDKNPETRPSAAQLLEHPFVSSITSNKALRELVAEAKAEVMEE
pIC50: −log10 of the molar value.
MEASURED_METRIC: pIC50

[
  {
    "SMILES_REPR": "COc1cccc(CNC(=O)Nc2ccc3cc2OCCOCCNc2ccn4ncc-3c4n2)c1",
    "pIC50": 5.20
  }
]

P. O=C(NCc1ccc(Cl)cc1)Nc1ccc2cc1OCCOCCNc1ccn3ncc-2c3n1
Q. Cc1cc(F)ccc1CNC(=O)Nc1ccc2cc1OCCOCCNc1ccn3ncc-2c3n1
R. O=C(NCc1ccc(C(F)(F)F)cc1)Nc1ccc2cc1OCCOCCNc1ccn3ncc-2c3n1
S. C[C@H](NC(=O)Nc1ccc2cc1OCCOCCNc1ccn3ncc-2c3n1)c1ccccc1
Task: rank_up(items): orders items by reported pIC50 in ascending numerical order. Would you mind listing the labels in the order asked for?
Result: S, R, Q, P
(S: 4.99, R: 5.30, Q: 5.50, P: 6.02)

A. Cc1ccc(F)cc1CNC(=O)Nc1ccc2cc1OCCOCCNc1ccn3ncc-2c3n1
B. Cc1cc(C(F)(F)F)ccc1CNC(=O)Nc1ccc2cc1OCCOCCNc1ccn3ncc-2c3n1
Task: Lab note: check whether A or B shows the higher recorded pIC50. Identify your pick by its label.
Result: B

I. O=C(NCc1ccccc1C(F)(F)F)Nc1ccc2cc1OCCOCCNc1ccn3ncc-2c3n1
II. O=C(NCc1ccc(Cl)cc1Cl)Nc1ccc2cc1OCCOCCNc1ccn3ncc-2c3n1
III. COc1ccccc1CNC(=O)Nc1ccc2cc1OCCOCCNc1ccn3ncc-2c3n1
IV. O=C(NCc1ccccc1)Nc1ccc2cc1OCCOCCNc1ccn3ncc-2c3n1
Task: rank_up(items): orders items by reported pIC50 in ascending numerical order. Would you mind listing the labels in the order asked for?
Result: III, I, II, IV
(III: 5.28, I: 5.63, II: 5.84, IV: 6.06)
